Target: fMet-Leu-Phe receptor (Homo sapiens) (UniProt P21462)
Sequence (P21462 whole entry, looked up): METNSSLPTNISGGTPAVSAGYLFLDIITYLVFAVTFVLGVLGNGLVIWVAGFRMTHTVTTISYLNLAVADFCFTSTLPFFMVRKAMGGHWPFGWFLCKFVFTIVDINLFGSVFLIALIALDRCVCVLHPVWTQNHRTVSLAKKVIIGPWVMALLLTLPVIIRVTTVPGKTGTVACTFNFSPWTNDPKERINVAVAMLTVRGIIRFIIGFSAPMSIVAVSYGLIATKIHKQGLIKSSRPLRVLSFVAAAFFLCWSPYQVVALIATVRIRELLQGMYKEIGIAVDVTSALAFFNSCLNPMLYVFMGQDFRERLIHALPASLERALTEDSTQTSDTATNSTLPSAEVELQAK
Assay: FPR1 fluorescent ligand binding inhibitors, SAR follow-up, selectivity assay for FPRL1 ligand SAR project, cell-based, single concentration (AID 763)
Details: FPR1-expressing cells, active compounds read high; at 5.4 µM unless noted
Calls of active or inactive are those of the source. The rule behind the calls is not given here.
Measure name: inhibition

molecular_string=CCOC(=O)N1CCN(c2nc(-c3ccc(F)cc3)cc(C(F)(F)F)n2)CC1 measure_name=inhibition assay_value="0.3% [at 5.6 µM] (inactive)"

Ask | Any idea what its inhibition is? The compound is COc1ccc(-c2cn3cccnc3n2)cc1NC(=O)c1ccc(OC)c(OC)c1
Reply | -5.3% [at 5.5 µM] (inactive)

Ask | Form field: reported inhibition of COc1ccc(-c2cn3cccnc3n2)cc1NC(=O)c1ccco1
Reply | 1.3% [at 6.7 µM] (inactive)

Ask | May I ask what inhibition has been recorded for COc1ccccc1-c1cc(C(F)(F)F)nc(N2CCN(c3ccccc3OC)CC2)n1 ?
Reply | -2.2% [at 5 µM] (inactive)

Ask | Quick one: inhibition of COc1ccc(CC(=O)Nc2cc(-c3cn4cccnc4n3)ccc2OC)cc1 ?
Reply | -1.7% [at 5.7 µM] (inactive)

Ask | May I ask what inhibition has been recorded for Cc1ccc(-c2cc(C(F)F)nc(N3CCN(c4cccc(Cl)c4)CC3)n2)cc1 ?
Reply | 2.7% (inactive)

Ask | If you can, please state the reported inhibition value of O=C(O)/C=C/C(=O)N1CCN(c2nc(-c3ccccc3)c3ccccc3n2)CC1 .
Reply | 2.4% [at 5.7 µM] (inactive)

Ask | For O=C(N1CCN(c2nc(-c3ccccc3)c3ccccc3n2)CC1)C(F)(F)F , what is its reported inhibition?
Reply | 5.9% [at 5.8 µM] (inactive)

Ask | Quick check: inhibition of CC(C)(C)OC(=O)N1CCN(c2nc(-c3ccccc3)c3ccccc3n2)CC1 ?
Reply | -1.7% [at 5.7 µM] (inactive)

Ask | What value of measured inhibition is listed for COc1ccc(-c2cn3cccnc3n2)cc1NC(=O)COc1ccccc1 ?
Reply | 5.8% [at 5.9 µM] (inactive)

Data origin, for the record: PubChem BioAssay AID763
